assay: Pharmacokinetics assay in rats after intragastric administration; format: in vivo; conditions: both sexes, Sprague-Dawley, rat, plasma, po, SD rats, 5 mg/Kg, read-out: Curve Area AUC
property_label: AUC (ng·h/mL)
Use ng·h/mL as the unit, but write only the number.

| compound | measurement_units | AUC |
| --- | --- | --- |
| CC1=NN(c2ccc3c(c2)CCCC3)C(=O)/C1=N\Nc1cccc(-c2ccc(C(=O)O)o2)c1O | ng·h/mL | 23800 |
| CC1=NN(c2ccc3c(c2)CCC3)C(=O)/C1=N\Nc1cccc(-c2cccc(C(=O)O)c2)c1O | ng·h/mL | 132000 |
| CC1=NN(c2ccc3c(c2)CCC3)C(=O)/C1=N\Nc1cc(C)cc(-c2cccc(C(=O)O)c2)c1O | ng·h/mL | 44800 |

Now let's try a different one.
Inquiry: If you can, please state the reported AUC value of CC1=NN(c2ccc(C)c(C)c2)C(=O)/C1=N\Nc1cccc(-c2cccc(C(=O)O)c2)c1O [Eltrombopag, eltrombopag, reference compound] .
Reply text: 29000
